// data source = the DeepSol protein solubility set

Test: soluble on expression in E. coli; label from the status in PepcDB or PDB records
readout.type: soluble on expression in E. coli

• FPSTYLSHRQETIGQKATAIAQSLEGKDRQSIEQVLDLYSQTSDIKGTVKGEMTEDKLEVKDSLPLDTDRQTTSLFIEEREVKTQDGGTMILQFLASMDLQKEAEQ = not soluble
• MSLSHNSSLPPFTASGFAEDQGAVRIWRKDSGDNVHFLAVFSPWRSGDTTTREYRWQGDNLTLININVYSKPPVNIRARFDDRGDLSFMQRESDGEKQQLSNDQIDLYRYRADQIRQISDALRQGRVVLRQGRWHAMEQTVTTCEGQTIKPDLDSQAIAHIERRQSRSSVDVSVAWLEAPEGSQLLLVANSDFCRWQPNEKTFEGHHHHHH = not soluble
